- System: HeLa Kyoto
- method notes: solubility in G1/S (NP-40 vs SDS abundance) (log2 ratio); higher = more soluble
- test conditions: cell cycle stage: G1/S
observed property: solubility in G1/S (log2)
Answer with a number only.

Below, each entry is followed by its recorded solubility in G1/S (log2) result.
sequence_text="MSGELPPNINIKEPRWDQSTFIGRANHFFTVTDPRNILLTNEQLESARKIVHDYRQGIVPPGLTENELWRAKYIYDSAFHPDTGEKMILIGRMSAQVPMNMTITGCMMTFYRTTPAVLFWQWINQSFNAVVNYTNRSGDAPLTVNELGTAYVSATTGAVATALGLNALTKHVSPLIGRFVPFAAVAAANCINIPLMRQRELKVGIPVTDENGNRLGESANAAKQAITQVVVSRILMAAPGMAIPPFIMNTLEKKAFLKRFPWMSAPIQVGLVGFCLVFATPLCCALFPQKSSMSVTSLEAELQAKIQESHPELRRVYFNKGL [SFXN1]" observed_property="solubility in G1/S (log2)" reported_result=0.371
sequence_text="MRKPDSKIVLLGDMNVGKTSLLQRYMERRFPDTVSTVGGAFYLKQWRSYNISIWDTAGREQFHGLGSMYCRGAAAIILTYDVNHRQSLVELEDRFLGLTDTASKDCLFAIVGNKVDLTEEGALAGQEKEECSPNMDAGDRVSPRAPKQVQLEDAVALYKKILKYKMLDEQDVPAAEQMCFETSAKTGYNVDLLFETLFDLVVPMILQQRAERPSHTVDISSHKPPKRTRSGCCA [RAB20]" observed_property="solubility in G1/S (log2)" reported_result=0.0752

# context switch: different sequence, same solubility in G1/S (log2)
## Task Endpoint output: solubility in G1/S (log2) of MCGDCVEKEYPNRGNTCLENGSFLLNFTGCAVCSKRDFMLITNKSLKEEDGEEIVTYDHLCKNCHHVIARHEYTFSIMDEFQEYTMLCLLCGKAEDTISILPDDPRQMTLLF [CHURC1] . Value?
## Result 0.0387

---

- System: HeLa Kyoto
- method notes: solubility in G1/S (NP-40 vs SDS abundance) (log2 ratio); higher = more soluble
- test conditions: cell cycle stage: G1/S
// N strictly below 0.2 in solubility in G1/S (log2); Y otherwise

sequence_text="MNSRQAWRLFLSQGRGDRWVSRPRGHFSPALRREFFTTTTKEGYDRRPVDITPLEQRKLTFDTHALVQDLETHGFDKTQAETIVSALTALSNVSLDTIYKEMVTQAQQEITVQQLMAHLDAIRKDMVILEKSEFANLRAENEKMKIELDQVKQQLMHETSRIRADNKLDINLERSRVTDMFTDQEKQLMETTTEFTKKDTQTKSIISETSNKIDAEIASLKTLMESNKLETIRYLAASVFTCLAIALGFYRFWK [CCDC90B]" study_target="HeLa Kyoto" cat=N

## Task Does the reported solubility in G1/S (log2) for MALLSRPALTLLLLLMAAVVRCQEQAQTTDWRATLKTIRNGVHKIDTYLNAALDLLGGEDGLCQYKCSDGSKPFPRYGYKPSPPNGCGSPLFGVHLNIGIPSLTKCCNQHDRCYETCGKSKNDCDEEFQYCLSKICRDVQKTLGLTQHVQACETTVELLFDSVIHLGCKPYLDSQRAACRCHYEEKTDL [PLA2G12A] fall at or above the 0.2 mark?
## Result N

## Task Does the sequence MGQNDLMGTAEDFADQFLRVTKQYLPHVARLCLISTFLEDGIRMWFQWSEQRDYIDTTWNCGYLLASSFVFLNLLGQLTGCVLVLSRNFVQYACFGLFGIIALQTIAYSILWDLKFLMRNLALGGGLLLLLAESRSEGKSMFAGVPTMRESSPKQYMQLGGRVLLVLMFMTLLHFDASFFSIVQNIVGTALMILVAIGFKTKLAALTLVVWLFAINVYFNAFWTIPVYKPMHDFLKYDFFQTMSVIGGLLLVVALGPGGVSMDEKKKEW [SURF4] have recorded solubility in G1/S (log2) that is 0.2 or more?
## Result N

## Task Identify whether the reported solubility in G1/S (log2) of the following sequence is 0.2 or greater: MAAYKLVLIRHGESAWNLENRFSGWYDADLSPAGHEEAKRGGQALRDAGYEFDICFTSVQKRAIRTLWTVLDAIDQMWLPVVRTWRLNERHYGGLTGLNKAETAAKHGEAQVKIWRRSYDVPPPPMEPDHPFYSNISKDRRYADLTEDQLPSCESLKDTIARALPFWNEEIVPQIKEGKRVLIAAHGNSLRGIVKHLEGLSEEAIMELNLPTGIPIVYELDKNLKPIKPMQFLGDEETVRKAMEAVAAQGKAKK [PGAM1]
## Result Y

## Task Determine whether measured solubility in G1/S (log2) meets or exceeds 0.2 for MSTAAVPELKQISRVEAMRLGPGWSHSCHAMLYAANPGQLFGRIPMRFSVLMQMRFDGLLGFPGGFVDRRFWSLEDGLNRVLGLGLGCLRLTEADYLSSHLTEGPHRVVAHLYARQLTLEQLHAVEISAVHSRDHGLEVLGLVRVPLYTQKDRVGGFPNFLSNAFVSTAKCQLLFALKVLNMMPEEKLVEALAAATEKQKKALEKLLPASS [NUDT16L1]
## Result N

## Task Kindly determine if solubility in G1/S (log2) recorded for MVGREKELSIHFVPGSCRLVEEEVNIPNRRVLVTGATGLLGRAVHKEFQQNNWHAVGCGFRRARPKFEQVNLLDSNAVHHIIHDFQPHVIVHCAAERRPDVVENQPDAASQLNVDASGNLAKEAAAVGAFLIYISSDYVFDGTNPPYREEDIPAPLNLYGKTKLDGEKAVLENNLGAAVLRIPILYGEVEKLEESAVTVMFDKVQFSNKSANMDHWQQRFPTHVKDVATVCRQLAEKRMLDPSIKGTFHWSGNEQMTKYEMACAIADAFNLPSSHLRPITDSPVLGAQRPRNAQLDCSKLETLGIGQRTPFRIGIKESLWPFLIDKRWRQTVFH [MAT2B] is above or exactly 0.2.
## Result Y

---

- Tested on: HeLa Kyoto
- method notes: melting temperature (median over replicates), in situ; higher = more thermally stable
- test conditions: cell cycle stage: mitosis
observed property: melting temperature (°C)
Just the number in °C, nothing appended.

sequence_text="MEVHGKPKASPSCSSPTRDSSGVPVSKELLTAGSDGRGGIWDRLLINSQPKSRKTSTLQTVRIERSPLLDQVQTFLPQMARANEKLRKEMAAAPPGRFNIENIDGPHSKVIQMDVALFEMNQSDSKEVDSSEESSQDSSENSSESEDEDDSIPSEVTIDNIKLPNSEGGKGKIEVLDSPASKKKK [C12ORF45]" measure_unit=°C reported_result=53.7
sequence_text="MAVTGWLESLRTAQKTALLQDGRRKVHYLFPDGKEMAEEYDEKTSELLVRKWRVKSALGAMGQWQLEVGDPAPLGAGNLGPELIKESNANPIFMRKDTKMSFQWRIRNLPYPKDVYSVSVDQKERCIIVRTTNKKYYKKFSIPDLDRHQLPLDDALLSFAHANCTLIISYQKPKEVVVAESELQKELKKVKTAHSNDGDCKTQ [DPCD]" measure_unit=°C reported_result=49

Kindly consider the entry below.
## Task What value of measured melting temperature is listed for MGGTTSTRRVTFEADENENITVVKGIRLSENVIDRMKESSPSGSKSQRYSGAYGASVSDEELKRRVAEELALEQAKKESEDQKRLKQAKELDRERAAANEQLTRAILRERICSEEERAKAKHLARQLEEKDRVLKKQDAFYKEQLARLEERSSEFYRVTTEQYQKAAEEVEAKFKRYESHPVCADLQAKILQCYRENTHQTLKCSALATQYMHCVNHAKQSMLEKGG [CHCHD3] ?
## Result 54.2

---

- System: HeLa Kyoto
- method notes: solubility in G1/S (NP-40 vs SDS abundance) (log2 ratio); higher = more soluble
- test conditions: cell cycle stage: G1/S
Recorded solubility in G1/S (log2) values for a group of sequences are listed next.
Output spec: single numeric token, no unit.

sequence_text="MDVFLMIRRHKTTIFTDAKESSTVFELKRIVEGILKRPPDEQRLYKDDQLLDDGKTLGECGFTSQTARPQAPATVGLAFRADDTFEALCIEPFSSPPELPDVMKPQDSGSSANEQAVQ [TCEB2]" study_target="HeLa Kyoto" reported_result=0.109

Okay, now this sequence:
## Task Returns the measured solubility in G1/S (log2) for the input sequence. Input: MAAACRSVKGLVAVITGGASGLGLATAERLVGQGASAVLLDLPNSGGEAQAKKLGNNCVFAPADVTSEKDVQTALALAKGKFGRVDVAVNCAGIAVASKTYNLKKGQTHTLEDFQRVLDVNLMGTFNVIRLVAGEMGQNEPDQGGQRGVIINTASVAAFEGQVGQAAYSASKGGIVGMTLPIARDLAPIGIRVMTIAPGLFGTPLLTSLPEKVCNFLASQVPFPSRLGDPAEYAHLVQAIIENPFLNGEVIRLDGAIRMQP [HSD17B10]
## Result 0.254

Cited source for all entries: the supplement of paper PMC5998384
